Listed next: entries and their corresponding Activity.
test system: Venezuelan equine encephalitis virus; assay: Antiviral activity against Venezuelan equine encephalitis virus infected in human MRC5 cells assessed as virus induced cell death at 100 uM relative to control; assay type: functional
Attribute Measured: Activity (%)

INSERT INTO results (compound, target_or_system, quantitative_readout) VALUES
  ('O=c1[nH]c(=O)n([C@@H]2O[C@H](CO)[C@@H](O)[C@H]2O)cc1COC(c1ccccc1)C1CCCCC1 (some centres not stated)', 'Venezuelan equine encephalitis virus', 16.28),
  ('CC(OCc1cn([C@@H]2O[C@H](CO)[C@@H](O)[C@H]2O)c(=O)[nH]c1=O)c1ccccc1 (some centres not stated)', 'Venezuelan equine encephalitis virus', 5.05),
  ('O=c1[nH]c(=O)n([C@H]2O[C@H](CO)[C@@H](O)[C@H]2O)cc1COCc1ccccc1', 'Venezuelan equine encephalitis virus', 11.03),
  ('CCC(OCc1cn([C@@H]2O[C@H](CO)[C@@H](O)[C@H]2O)c(=O)[nH]c1=O)c1ccccc1 (some centres not stated)', 'Venezuelan equine encephalitis virus', 8.2),
  ('CC(C)(C)C(OCc1cn([C@@H]2O[C@H](CO)[C@@H](O)[C@H]2O)c(=O)[nH]c1=N)c1ccccc1 (some centres not stated)', 'Venezuelan equine encephalitis virus', 10.91),
  ('O=c1[nH]c(=O)n([C@@H]2O[C@H](CO)[C@@H](O)[C@H]2O)cc1COCc1ccccc1', 'Venezuelan equine encephalitis virus', 22.88),
  ('CC(OCc1cn([C@@H]2O[C@H](CO)[C@@H](O)[C@H]2O)c(=O)[nH]c1=N)c1ccccc1 (some centres not stated)', 'Venezuelan equine encephalitis virus', 11.51),
  ('Cc1ccccc1C(OCc1cn([C@@H]2O[C@H](CO)[C@@H](O)[C@H]2O)c(=O)[nH]c1=N)C(C)(C)C (some centres not stated)', 'Venezuelan equine encephalitis virus', 22.95),
  ('CCC(OCc1cn([C@@H]2O[C@H](CO)[C@@H](O)[C@H]2O)c(=O)[nH]/c1=N\O)c1ccccc1 (some centres not stated)', 'Venezuelan equine encephalitis virus', 4.87),
  ('CC(C)(C)C(OCc1c[nH]c(=O)[nH]c1=O)c1ccccc1 (configuration not stated)', 'Venezuelan equine encephalitis virus', 4.02),
  ('CC(C)C(OCc1cn([C@H]2O[C@H](CO)[C@@H](O)[C@H]2O)c(=O)[nH]c1=O)c1ccccc1 (some centres not stated)', 'Venezuelan equine encephalitis virus', 17.19),
  ('CC(OCc1c[nH]c(=O)[nH]c1=O)c1ccccc1 (configuration not stated)', 'Venezuelan equine encephalitis virus', 11.63),
  ('Cc1ccccc1C(OCc1cn([C@@H]2O[C@H](CO)[C@@H](O)[C@H]2O)c(=O)[nH]c1=O)C(C)(C)C (some centres not stated)', 'Venezuelan equine encephalitis virus', 27.83),
  ('O=c1[nH]/c(=N\O)c(COC(c2ccccc2)C2CCCCC2)cn1[C@@H]1O[C@H](CO)[C@@H](O)[C@H]1O (some centres not stated)', 'Venezuelan equine encephalitis virus', 25.09),
  ('N=c1[nH]c(=O)n([C@@H]2O[C@H](CO)[C@@H](O)[C@H]2O)cc1COCc1ccccc1Cl', 'Venezuelan equine encephalitis virus', 10.11),
  ('O=c1[nH]/c(=N\O)c(COCc2ccccc2)cn1[C@@H]1O[C@H](CO)[C@@H](O)[C@H]1O', 'Venezuelan equine encephalitis virus', 16.09),
  ('CC(C)C(OCc1cn([C@@H]2O[C@H](CO)[C@@H](O)[C@H]2O)c(=O)[nH]c1=N)c1ccccc1 (some centres not stated)', 'Venezuelan equine encephalitis virus', 7.99);

* * *

system: Venezuelan equine encephalitis virus; assay: Antiviral activity against Venezuelan equine encephalitis virus infected in human MRC5 cells assessed as virus induced cell death at 100 uM relative to control; format: functional
Attribute Measured: Activity

INSERT INTO assay_data (molecule, target_or_system, result) VALUES
  ('Cc1ccccc1C(OCc1c[nH]c(=O)[nH]c1=O)C(C)(C)C (stereo unspecified)', 'Venezuelan equine encephalitis virus', '3.54%'),
  ('O=c1[nH]/c(=N\O)c(COCc2ccccc2Cl)cn1[C@@H]1O[C@H](CO)[C@@H](O)[C@H]1O', 'Venezuelan equine encephalitis virus', '6.38%'),
  ('CC(C)C(OCc1c[nH]c(=O)[nH]c1=O)c1ccccc1 (stereo unspecified)', 'Venezuelan equine encephalitis virus', '7.76%'),
  ('O=c1[nH]cc(CO)c(=O)[nH]1', 'Venezuelan equine encephalitis virus', '7.97%'),
  ('CC(C)(C)C(OCc1cn([C@@H]2O[C@H](CO)[C@@H](O)[C@H]2O)c(=O)[nH]/c1=N\O)c1ccccc1 (stereo partly specified)', 'Venezuelan equine encephalitis virus', '20.09%'),
  ('CC(C)(C)C(OCc1cn([C@@H]2O[C@H](CO)[C@@H](O)[C@H]2O)c(=O)[nH]c1=O)c1ccccc1 (stereo partly specified)', 'Venezuelan equine encephalitis virus', '17.18%'),
  ('CC(C)(C)C(OCc1cn([C@@H]2O[C@H](CO)[C@@H](O)[C@H]2O)c(=O)[nH]c1=N)c1ccccc1Cl (stereo partly specified)', 'Venezuelan equine encephalitis virus', '18.8%'),
  ('CC(C)(C)C(OCc1c[nH]c(=O)[nH]c1=O)c1ccccc1Cl (stereo unspecified)', 'Venezuelan equine encephalitis virus', '4.74%'),
  ('N=c1[nH]c(=O)n([C@@H]2O[C@H](CO)[C@@H](O)[C@H]2O)cc1CO', 'Venezuelan equine encephalitis virus', '29.79%'),
  ('O=c1[nH]c(=O)n([C@@H]2O[C@H](CO)[C@@H](O)[C@H]2O)cc1COCc1ccccc1Cl', 'Venezuelan equine encephalitis virus', '12.17%'),
  ('O=c1[nH]/c(=N\O)c(CO)cn1[C@@H]1O[C@H](CO)[C@@H](O)[C@H]1O', 'Venezuelan equine encephalitis virus', '4.99%');

* * *

Listed next: entries and their corresponding CC50.
assay: Cytotoxicity against human MRC-5 cells assessed as reduction in cell viability; format: toxicity, cell-based, MRC5
Attribute Measured: CC50 (µM)

INSERT INTO measurements (compound, quantitative_readout) VALUES
  ('O=c1nc(NO)ccn1[C@@H]1O[C@H](CO)[C@@H](O)[C@H]1O [N-HYDROXYCYTIDINE]', 95.5),
  ('CC(C)(C)C(OCc1cn([C@@H]2O[C@H](CO)[C@@H](O)[C@H]2O)c(=O)[nH]/c1=N\O)c1ccccc1Cl (some centres not stated)', 135);

* * *

Listed next: entries and their corresponding Activity.
tested on: Venezuelan equine encephalitis virus; assay: Antiviral activity against Venezuelan equine encephalitis virus infected in human MRC5 cells assessed as virus induced cell death at 100 uM relative to control; assay type: functional
Attribute Measured: Activity (%)

INSERT INTO results (compound, measurement_units, quantitative_readout) VALUES
  ('O=c1[nH]c(=O)n([C@H]2O[C@H](CO)[C@@H](O)[C@H]2O)cc1COCc1ccccc1Cl', '%', 12.73),
  ('CC(C)C(OCc1cn([C@@H]2O[C@H](CO)[C@@H](O)[C@H]2O)c(=O)[nH]/c1=N\O)c1ccccc1 (some centres undefined)', '%', 9.54),
  ('CC(C)(C)C(OCc1cn([C@@H]2O[C@H](CO)[C@@H](O)[C@H]2O)c(=O)[nH]c1=O)c1ccccc1Cl (some centres undefined)', '%', 20.09),
  ('CCC(OCc1c[nH]c(=O)[nH]c1=O)c1ccccc1 (centres undefined)', '%', 6.21),
  ('CC(C)(C)C(OCc1cn([C@@H]2O[C@H](CO)[C@@H](O)[C@H]2O)c(=O)[nH]/c1=N\O)c1ccccc1Cl (some centres undefined)', '%', 30.28),
  ('N=c1[nH]c(=O)n([C@@H]2O[C@H](CO)[C@@H](O)[C@H]2O)cc1COC(c1ccccc1)C1CCCCC1 (some centres undefined)', '%', 17.83),
  ('O=c1[nH]cc(COCc2ccccc2)c(=O)[nH]1', '%', 0.22),
  ('O=c1[nH]cc(COCc2ccccc2Cl)c(=O)[nH]1', '%', 9.35),
  ('CCC(OCc1cn([C@H]2O[C@H](CO)[C@@H](O)[C@H]2O)c(=O)[nH]c1=O)c1ccccc1 (some centres undefined)', '%', 20.81);
